B1: TPR 5TU (parent)
chain: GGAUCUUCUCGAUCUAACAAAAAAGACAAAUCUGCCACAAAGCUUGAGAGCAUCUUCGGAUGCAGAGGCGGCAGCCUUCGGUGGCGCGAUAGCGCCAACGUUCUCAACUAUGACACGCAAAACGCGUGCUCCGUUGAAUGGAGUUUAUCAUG

Variants of: B1
Assay: polymerase ribozyme fitness, log enrichment relative to wild type (log ratio); higher = more active; in vitro selection for triplet polymerase activity
This sample holds only a part of the variants without activity.
# polymerase ribozyme fitness (log ratio) per record follows
endpoint label: polymerase ribozyme fitness (log ratio)

{"variant id": "G11A A91G A138U", "endpoint label": "polymerase ribozyme fitness (log ratio)", "qualifier symbol": "≤", "result": -4.2}
{"variant id": "U9C U33G A52C C93G A110U", "endpoint label": "polymerase ribozyme fitness (log ratio)", "qualifier symbol": "≤", "result": -4.2}
{"variant id": "C36U C75G C96G A121U", "endpoint label": "polymerase ribozyme fitness (log ratio)", "qualifier symbol": "≤", "result": -4.2}
{"variant id": "A23C C87G", "endpoint label": "polymerase ribozyme fitness (log ratio)", "qualifier symbol": "≤", "result": -4.2}
{"variant id": "C69U C76U A97U U109G G112C C125A", "endpoint label": "polymerase ribozyme fitness (log ratio)", "qualifier symbol": "≤", "result": -4.2}
{"variant id": "A91U G94A G128U", "endpoint label": "polymerase ribozyme fitness (log ratio)", "qualifier symbol": "≤", "result": -4.2}
{"variant id": "A115U A119G A138G", "endpoint label": "polymerase ribozyme fitness (log ratio)", "qualifier symbol": "≤", "result": -4.2}
{"variant id": "C57U A64U C114U", "endpoint label": "polymerase ribozyme fitness (log ratio)", "qualifier symbol": "≤", "result": -4.2}
{"variant id": "A12C A29U G68C A73C G80U G84C", "endpoint label": "polymerase ribozyme fitness (log ratio)", "qualifier symbol": "≤", "result": -4.2}
{"variant id": "C36A U82A U90G A98C", "endpoint label": "polymerase ribozyme fitness (log ratio)", "qualifier symbol": "≤", "result": -4.2}
{"variant id": "C75G G81A G92U C125G", "endpoint label": "polymerase ribozyme fitness (log ratio)", "qualifier symbol": "≤", "result": -4.2}
{"variant id": "A3G A41U A47G U101G G136U", "endpoint label": "polymerase ribozyme fitness (log ratio)", "qualifier symbol": "≤", "result": -4.2}
{"variant id": "G86U U148A", "endpoint label": "polymerase ribozyme fitness (log ratio)", "qualifier symbol": "=", "result": -3.6}
{"variant id": "U77G C99A G140A", "endpoint label": "polymerase ribozyme fitness (log ratio)", "qualifier symbol": "≤", "result": -4.2}
{"variant id": "A24U G62U C96A G117A", "endpoint label": "polymerase ribozyme fitness (log ratio)", "qualifier symbol": "=", "result": -1.86}
{"variant id": "G81A A89U G112A G133U C149U", "endpoint label": "polymerase ribozyme fitness (log ratio)", "qualifier symbol": "≤", "result": -4.2}
{"variant id": "C5U C51U G84A A150G", "endpoint label": "polymerase ribozyme fitness (log ratio)", "qualifier symbol": "=", "result": -2.47}
{"variant id": "A40G G143A", "endpoint label": "polymerase ribozyme fitness (log ratio)", "qualifier symbol": "=", "result": -2.88}
{"variant id": "G50A U53A U55A U56A G67C G92A G126U", "endpoint label": "polymerase ribozyme fitness (log ratio)", "qualifier symbol": "≤", "result": -4.2}
{"variant id": "C93U C99G G136A", "endpoint label": "polymerase ribozyme fitness (log ratio)", "qualifier symbol": "=", "result": -0.753}
{"variant id": "C35A G81U A97U A98U", "endpoint label": "polymerase ribozyme fitness (log ratio)", "qualifier symbol": "=", "result": -3.76}
{"variant id": "C18G A30U C35A U61G G62U C93U U111G G124A", "endpoint label": "polymerase ribozyme fitness (log ratio)", "qualifier symbol": "≤", "result": -4.2}
{"variant id": "C35A U90A U111C A137C", "endpoint label": "polymerase ribozyme fitness (log ratio)", "qualifier symbol": "≤", "result": -4.2}
{"variant id": "A12G C116G", "endpoint label": "polymerase ribozyme fitness (log ratio)", "qualifier symbol": "=", "result": 0.204}
{"variant id": "C8G A21C G94C C99A", "endpoint label": "polymerase ribozyme fitness (log ratio)", "qualifier symbol": "≤", "result": -4.2}
{"variant id": "A37C A41G G86C G92U C95U", "endpoint label": "polymerase ribozyme fitness (log ratio)", "qualifier symbol": "=", "result": -3.05}
{"variant id": "G11U A19U C32U U33C G74A C85U G141U C149A", "endpoint label": "polymerase ribozyme fitness (log ratio)", "qualifier symbol": "≤", "result": -4.2}
{"variant id": "G84A A97G C129A G152A", "endpoint label": "polymerase ribozyme fitness (log ratio)", "qualifier symbol": "=", "result": -4}
{"variant id": "U55G G83C", "endpoint label": "polymerase ribozyme fitness (log ratio)", "qualifier symbol": "=", "result": -0.921}
{"variant id": "G50A A52C", "endpoint label": "polymerase ribozyme fitness (log ratio)", "qualifier symbol": "=", "result": -3.13}
{"variant id": "G71U C93U U104G C149A", "endpoint label": "polymerase ribozyme fitness (log ratio)", "qualifier symbol": "≤", "result": -4.2}
{"variant id": "A19U C96G C114U", "endpoint label": "polymerase ribozyme fitness (log ratio)", "qualifier symbol": "=", "result": -2.99}
{"variant id": "C18G C57A C93U U135C U145G", "endpoint label": "polymerase ribozyme fitness (log ratio)", "qualifier symbol": "=", "result": -3.11}
{"variant id": "A41C C57U C87G A98U G136U A147C", "endpoint label": "polymerase ribozyme fitness (log ratio)", "qualifier symbol": "≤", "result": -4.2}
{"variant id": "A24C G88U C95G C96U", "endpoint label": "polymerase ribozyme fitness (log ratio)", "qualifier symbol": "≤", "result": -4.2}
{"variant id": "C14U G48A A64C U90C U102G C103G A115G A122G U127A A150C", "endpoint label": "polymerase ribozyme fitness (log ratio)", "qualifier symbol": "≤", "result": -4.2}
{"variant id": "A26U A91G A115G A150C", "endpoint label": "polymerase ribozyme fitness (log ratio)", "qualifier symbol": "≤", "result": -4.2}
{"variant id": "G117U A137G", "endpoint label": "polymerase ribozyme fitness (log ratio)", "qualifier symbol": "=", "result": -1.34}
{"variant id": "A17U A24C A26G C57U G86A", "endpoint label": "polymerase ribozyme fitness (log ratio)", "qualifier symbol": "≤", "result": -4.2}
{"variant id": "A52G U53A A89C C93U", "endpoint label": "polymerase ribozyme fitness (log ratio)", "qualifier symbol": "=", "result": -2.02}
{"variant id": "A39G G42A G48C A49C G83U C87G C96A A107U", "endpoint label": "polymerase ribozyme fitness (log ratio)", "qualifier symbol": "≤", "result": -4.2}
{"variant id": "U61A G126C", "endpoint label": "polymerase ribozyme fitness (log ratio)", "qualifier symbol": "=", "result": -0.89}
{"variant id": "A89G A98U", "endpoint label": "polymerase ribozyme fitness (log ratio)", "qualifier symbol": "=", "result": -1.66}
{"variant id": "U33G A52G A73G G92C A107U C114U C125U U134C G141C", "endpoint label": "polymerase ribozyme fitness (log ratio)", "qualifier symbol": "≤", "result": -4.2}
{"variant id": "U55A U61A A91U A97C A142G", "endpoint label": "polymerase ribozyme fitness (log ratio)", "qualifier symbol": "≤", "result": -4.2}
{"variant id": "C149A", "endpoint label": "polymerase ribozyme fitness (log ratio)", "qualifier symbol": "=", "result": -3.33}
{"variant id": "G68A U139C", "endpoint label": "polymerase ribozyme fitness (log ratio)", "qualifier symbol": "≤", "result": -4.2}
{"variant id": "A28U G62A G65A G94A G136A", "endpoint label": "polymerase ribozyme fitness (log ratio)", "qualifier symbol": "≤", "result": -4.2}
{"variant id": "C14G G48C A49G U53A G92U C93U A107U", "endpoint label": "polymerase ribozyme fitness (log ratio)", "qualifier symbol": "≤", "result": -4.2}
{"variant id": "G11A G92U", "endpoint label": "polymerase ribozyme fitness (log ratio)", "qualifier symbol": "=", "result": -1.16}
{"variant id": "C79A C103G C131A", "endpoint label": "polymerase ribozyme fitness (log ratio)", "qualifier symbol": "≤", "result": -4.2}
{"variant id": "G84U U102G", "endpoint label": "polymerase ribozyme fitness (log ratio)", "qualifier symbol": "=", "result": -4.16}
{"variant id": "U31A A49G U55A G59U C96G", "endpoint label": "polymerase ribozyme fitness (log ratio)", "qualifier symbol": "=", "result": -1.89}
{"variant id": "A21C A28U G59C A97G U134C", "endpoint label": "polymerase ribozyme fitness (log ratio)", "qualifier symbol": "≤", "result": -4.2}
{"variant id": "A22G C54U G58A G59A C103G", "endpoint label": "polymerase ribozyme fitness (log ratio)", "qualifier symbol": "=", "result": -1.91}
{"variant id": "A20C C54U C95U G140U", "endpoint label": "polymerase ribozyme fitness (log ratio)", "qualifier symbol": "=", "result": -3.23}
{"variant id": "A60G C95U", "endpoint label": "polymerase ribozyme fitness (log ratio)", "qualifier symbol": "=", "result": -0.927}
{"variant id": "U77C G136U C149G", "endpoint label": "polymerase ribozyme fitness (log ratio)", "qualifier symbol": "=", "result": -4.11}
{"variant id": "C85U G92U C125A G136C", "endpoint label": "polymerase ribozyme fitness (log ratio)", "qualifier symbol": "=", "result": -3.55}
{"variant id": "U61C U104G G126C", "endpoint label": "polymerase ribozyme fitness (log ratio)", "qualifier symbol": "=", "result": -2.04}
{"variant id": "G84U A137U C149A", "endpoint label": "polymerase ribozyme fitness (log ratio)", "qualifier symbol": "≤", "result": -4.2}
{"variant id": "C79U C93U", "endpoint label": "polymerase ribozyme fitness (log ratio)", "qualifier symbol": "=", "result": -3.03}
{"variant id": "C85A U139C U145C", "endpoint label": "polymerase ribozyme fitness (log ratio)", "qualifier symbol": "≤", "result": -4.2}
{"variant id": "U6G C93G", "endpoint label": "polymerase ribozyme fitness (log ratio)", "qualifier symbol": "=", "result": -3.18}
{"variant id": "U7A U9A A21U U55A G59A C99G C129U A147C", "endpoint label": "polymerase ribozyme fitness (log ratio)", "qualifier symbol": "≤", "result": -4.2}
{"variant id": "G94A C96U C99G U144G", "endpoint label": "polymerase ribozyme fitness (log ratio)", "qualifier symbol": "≤", "result": -4.2}
{"variant id": "G11U A22G C54U G65A C76U A98U C103G U144G", "endpoint label": "polymerase ribozyme fitness (log ratio)", "qualifier symbol": "≤", "result": -4.2}
{"variant id": "C103G G141U", "endpoint label": "polymerase ribozyme fitness (log ratio)", "qualifier symbol": "=", "result": -3.36}
{"variant id": "U13A C18G A30G G65U A91G A115C C118U U144G", "endpoint label": "polymerase ribozyme fitness (log ratio)", "qualifier symbol": "≤", "result": -4.2}
{"variant id": "C8U C27G A40G U78G C85G A98C A150G", "endpoint label": "polymerase ribozyme fitness (log ratio)", "qualifier symbol": "≤", "result": -4.2}
{"variant id": "C38A A73G C79A C114G G124U G140U U148G", "endpoint label": "polymerase ribozyme fitness (log ratio)", "qualifier symbol": "≤", "result": -4.2}
{"variant id": "A47C G48U C76G C96U A113C", "endpoint label": "polymerase ribozyme fitness (log ratio)", "qualifier symbol": "≤", "result": -4.2}
{"variant id": "A30G C35U U56G A66G U82G C99U A119U G126A A142C", "endpoint label": "polymerase ribozyme fitness (log ratio)", "qualifier symbol": "≤", "result": -4.2}
{"variant id": "C79U U90A A106U", "endpoint label": "polymerase ribozyme fitness (log ratio)", "qualifier symbol": "≤", "result": -4.2}
{"variant id": "A39G A73G U109A A119U", "endpoint label": "polymerase ribozyme fitness (log ratio)", "qualifier symbol": "=", "result": -3.91}
